test: inhibitors of CD8+ T cell-vesicle binding, pilot screen, LFA-1/ICAM-1 modulator project, MLPCN validation set, flow cytometry (AID 2523); settings: 2C mouse CD8+ T cells, at 7 µM, hits give low values;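 also: mean PE anti-B7-1 fluorescence of CD8+ cells relative to row control; 100% = QL9-loaded vesicles with DMSO vehicle in the same plate row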
The source made the active and inactive calls.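 The calls were made as follows: active = response below a set limit, under 55% cells CD8-positive and vesicle-bound, and CD8 cells' 90th-percentile brightness under 279; inactive = the rest.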
Endpoint label: vesicle binding response

[[record]]
compound = "C[C@H](O)[C@H]1CC[C@H]2[C@@H]3CCC4=CC(=O)CC[C@]4(C)[C@H]3CC[C@]12C"
reading = "104% (inactive)"

[[record]]
compound = "CC12CN3CC(C)(CN(C1)C3c1cccnc1)C2=O (centres undefined)"
reading = "174% (inactive)"

[[record]]
compound = "CCN1CC2(COC(=O)c3ccccc3N)CCC(OC)C34C5CC6C(OC)CC(O)(C5C6OC)C(O)(C(OC)C23)C14 (centres undefined)"
reading = "247% (inactive)"

[[record]]
compound = "C[N+]1(C)CCN(c2ccccc2)CC1"
reading = "172% (inactive)"

